Cited source: PubChem BioAssay

The following compounds are shown together with reported nuclei count values.
# method summary: endothelial E-selectin expression blockers – imaging, HUVEC, immunofluorescence, MLSMR starter and 10KST1 sets, primary screen (AID 487);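 note: 100% = median nuclei count of all wells on the same plate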
# stated conditions: HUVEC TNFalpha-induced E-selectin immunofluorescence imaging, at 2 µM; measured here: cell number, toxicity
Just the number in %, nothing appended.

Solved entries:
compound | unit name | nuclei count
Cc1c(C(=O)NCc2ccccc2)oc2c1C(=O)CCC2 | % | 121
COc1ccccc1NC(=O)c1cc2n(n1)C(C(F)(F)F)CC(c1ccc3c(c1)OCO3)N2 (stereo unspecified) | % | 110
COc1ccc(CN(CC(=O)NCc2ccco2)C(=O)CCC(=O)Nc2nccs2)cc1 | % | 114

q: Consider the compound COc1ccc(S(=O)(=O)N2CN(Cc3ccco3)c3nc4ccccc4nc32)cc1 and give its measured nuclei count.
a: 134

q: Consider the compound COc1ccc(C(c2nnnn2C2CCCC2)N2CCC(C)CC2)c(OC)c1 (stereo unspecified) and give its measured nuclei count.
a: 109

q: Consider the compound CCCSc1nnc(-c2ccccc2NC(=O)CC)c(=O)[nH]1 and give its measured nuclei count.
a: 96.6

q: Consider the compound COc1ccc(CN(C2CCCC2)S(=O)(=O)c2ccc(-n3cnnn3)cc2)cc1OC and give its measured nuclei count.
a: 124

q: Consider the compound CCN(C(=O)c1cc(Cl)ccc1OC)c1ccccc1 and give its measured nuclei count.
a: 118

q: Consider the compound Cc1ccccc1NC(=O)CSc1nc(N)c(C#N)c(-c2cccs2)c1C#N and give its measured nuclei count.
a: 98.8

q: Consider the compound COc1cc2c(cc1OC)C(C)N(C(=O)Cn1ncc3c1-c1ccccc1OC3)CC2 (stereo unspecified) and give its measured nuclei count.
a: 117

q: Consider the compound CCc1nn2c(N3CCOCC3)cc(C)nc2c1-c1ccc(F)cc1 and give its measured nuclei count.
a: 114
